TM2 (° C.) overview
# Procedure text: Differential scanning fluorimetry (protein thermal shift; TM1/TM2)
# Format: physicochemical
# Assay context: Table 11; melting temperature of the Fab domain
# Experimental: A protein thermal shift assay was carried out by mixing the protein to be assayed with an environmentally sensitive dye (SYPRO Orange, Life Technologies Cat #S-6650) in a phosphate buffered solution (PBS), and monitoring the fluorescence of the mixture in real time as it underwent controlled thermal denaturation. […] At the end of the experiment, the transition melting temperatures (TM1 and TM2) were determined using the Bio-Rad CFX manager software. […]
Unit °C implied. Number only.

# example entries with known answers
>  <Molecule>
SRP2196-A08 (antibody, V domains shown) VH: EVQLVESGGGLVQPGGSLRLSCAASGFNITGYYIHWVRQAPGKGLEWVGYISPNSGSTYKADSVKGRFTISADTSRNTAYLQMNSLRAEDTAVYYCARDSRRYVRSWDYWGQGTLVTVSS VL: QAVVTQESALTTSPGETVTLTCRSSTGAVTTSNYANWVQEKPDHLFTGLIGGTNKRAPGVPARFSGSLIGDKAALTITGAQTEDEAIYFCALWYSNLWVFGGGTKLTVL

>  <Test value>
69

$$$$
>  <Molecule>
SRP2196-B02 (antibody, V domains shown) VH: EVQLVESGGGLVQPGGSLRLSCAASGFNITQYYIHWVRQAPGKGLEWVGYISPNSGQTYDADSVKGRFTISADTSKNTAYLQMNSLRAEDTAVYYCARDSRRYVRSWDYWGQGTLVTVSS VL: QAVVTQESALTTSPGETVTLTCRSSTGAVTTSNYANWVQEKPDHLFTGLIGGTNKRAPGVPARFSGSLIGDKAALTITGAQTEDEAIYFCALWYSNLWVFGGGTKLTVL

>  <Test value>
69

$$$$

### Prompt Give its TM2 (° C.) value. Item: SRP2196-C03 (antibody, V domains shown) VH: EVQLVESGGGLVQPGGSLRLSCAASGFNITGYYIHWVRQAPGKGLEWVGQISPNSGSTYSADSVKGRFTISADTSKNTAYLQMSSLRAEDTAVYYCARDSRRYVLSWDYWGQGTLVTVSS VL: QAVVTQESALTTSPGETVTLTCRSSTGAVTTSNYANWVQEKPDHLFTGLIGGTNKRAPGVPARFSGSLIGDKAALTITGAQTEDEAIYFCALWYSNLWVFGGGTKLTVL
### Response 69
